Target: human p38 kinase alpha (Homo sapiens)
Construct: The coding region of the human p38 cDNA was obtained by PCR-amplification from RNA isolated from the human monocyte cell line THP.1; GST (N); made in house; host or cells: E. coli DH10B
Assay: p38 kinase in vitro assay
Assay type: biochemical
Details: Table III; n = number of times assayed, n=1 if not reported; read-out: p38 Alpha IC50
Here, each record is paired with measured IC50 data.
Write down the value, and be sure its unit follows.

Find the recorded IC50 belonging to CCn1ccc(OCc2ccccc2)c(Br)c1=O and report it. 1990 nM

What does the data say about its IC50? Entry: O=c1c(Br)c(OCc2ccccc2)ccn1Cc1ccc(OCc2ccccc2)cc1 1450 nM

Report IC50 for O=c1c(Cl)c(OCc2ccc(F)cc2)ccn1Cc1ccc(F)cc1 please. 1080 nM

Form field: reported IC50 of Cc1ccc(COc2ccn(Cc3ccccc3)c(=O)c2Br)cc1 1730 nM

Which IC50 value belongs to O=c1c(I)c(OCc2ccccc2)ccn1Cc1cccc(F)c1 ? 1760 nM

API: the following record is the query input.
Returns the measured IC50 for the input compound. Input: O=c1c(Br)c(OCc2ccccc2)ccn1Cc1ccc(F)nc1 1850 nM

----------
As shown below, each of these molecules has a reported melting point value.

These solved cases illustrate the format of a correct answer.
Given O=c1c(Br)c(O)ccn1Cc1ccc(O)cc1 , state its recorded melting point. 102 to 108 °C

GET /values?readout=melting point&item= O=c1cc(OCc2cccc(Cl)c2)ccn1Cc1ccccc1 95.5 to 95.7 °C

What value of measured melting point is listed for Cc1ccc(Cn2ccc(OCc3ccccc3)c(Br)c2=O)cc1 ? 150.4 to 151.2 °C

Recorded melting point for Cl.O=c1c(Br)c(OCc2ccccc2)ccn1CC1CCNCC1 , please? 207.9 °C

Entry O=c1c(Br)c(OCc2c(Cl)cccc2Cl)ccn1Cc1ccccc1 : reported melting point = ? 156.3 to 157.9 °C

Next:
// returns reported melting point for input O=c1c(Br)c(SCc2ccccc2)ccn1Cc1ccccc1 180.6 to 182.1 °C

# get_value(readout='melting point', item= O=c1cc(OCc2ccccc2Cl)ccn1Cc1ccccc1 ) 124.6 to 125 °C

Reported melting point for O=c1c(Br)c(OCc2ccccc2)ccn1Cc1ccc(OCc2ccccc2)cc1 : what is it? 137.6 to 144.3 °C

Which melting point reading was recorded for the molecule O=c1cc(OCc2c(Cl)cccc2Cl)ccn1Cc1ccccc1 ? 151.6 to 152 °C

Could you tell me which melting point is on file for O=c1c(Br)c(OCc2ccccc2Cl)ccn1Cc1ccccc1 ? 143.3 to 145.5 °C

State the recorded melting point for this entry: Cl.O=c1c(Br)c(OCc2ccccc2)ccn1CC1CCCNC1 (stereo not drawn) 138.1 to 139.2 °C

Any idea what melting point was measured for Cn1ccc(OCc2ccccc2)c(Br)c1=O ? 61.3 to 64.8 °C

Value lookup for melting point; key = Cc1ccc(Cn2ccc(OCc3ccccc3)cc2=O)cc1 142.8 to 143.3 °C

Look at this molecule and give its reported melting point. O=c1c(Br)c(OCc2ccccc2)ccn1Cc1cccc(C(F)(F)F)c1 181.5 to 181.6 °C

----------
Reported pIC50 values follow for various compounds
Biological target: human p38 kinase alpha (Homo sapiens, UniProt Q16539)
Construct: The coding region of the human p38 cDNA was obtained by PCR-amplification from RNA isolated from the human monocyte cell line THP.1; GST (N); made in house; host or cells: E. coli DH10B
Sequence (Q16539 whole entry): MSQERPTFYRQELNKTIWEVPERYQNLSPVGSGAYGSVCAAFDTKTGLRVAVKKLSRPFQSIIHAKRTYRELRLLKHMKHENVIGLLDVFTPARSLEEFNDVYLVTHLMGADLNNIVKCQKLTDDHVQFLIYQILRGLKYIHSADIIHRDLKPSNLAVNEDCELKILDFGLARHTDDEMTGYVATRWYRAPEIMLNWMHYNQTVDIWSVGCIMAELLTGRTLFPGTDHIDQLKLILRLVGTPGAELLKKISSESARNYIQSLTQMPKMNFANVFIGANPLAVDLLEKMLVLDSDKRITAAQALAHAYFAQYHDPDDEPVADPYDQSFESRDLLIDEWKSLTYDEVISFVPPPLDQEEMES
Assay: p38 kinase in vitro assay
Type: biochemical
Settings: Table II; several values in a cell = repeat determinations; read-out: p38A
pIC50 (log units): -log10 of the concentration in mol/L.

Entry Cc1ccc(COc2ccn(Cc3ccccc3)c(=O)c2Br)cc1 : reported pIC50 = ? 5.76

Entry under review: O=c1c(Br)c(OCc2ccc(Cl)cc2)ccn1CCc1ccccc1 . Reported pIC50? 5.18

Which pIC50 reading was recorded for the compound O=c1c(Br)c(OCc2ccc(Cl)cc2)ccn1Cc1ccc(F)cc1 ? 5.72

// pIC50 lookup, key: O=c1c(Br)c(OCc2ccccc2)ccn1CCc1cccs1 5.65

I am curious: what pIC50 value has been reported for O=c1cc(OCc2ccccc2)ccn1Cc1ccccc1F ? 4.47

Bench note: what pIC50 did O=c1c(Br)c(OCc2ccc(Cl)cc2)ccn1Cc1cccc(Cl)c1 show? 5.17

Using the record for O=c1c(Br)c(OCc2ccccc2)ccn1Cc1ccc(C(F)(F)F)cc1 , report its pIC50. 5.82

Can you share its pIC50? I mean this compound: O=c1c(Br)c(OCc2ccc(F)cc2)ccn1Cc1cccc(Cl)c1 5.94

New cases:
I'd like to know its pIC50. The compound in question is Cc1cc(OCc2cccc(Cl)c2)c(Br)c(=O)n1Cc1ccccc1 5.80

Bench note: what pIC50 did O=c1cc(OCc2ccccc2)ccn1Cc1cccc(F)c1 show? 4.45
